Source: ChEMBL document CHEMBL4613271

Molecular target: Bromodomain-containing protein 7 (Homo sapiens, UniProt Q9NPI1)
Sequence (Q9NPI1 whole entry): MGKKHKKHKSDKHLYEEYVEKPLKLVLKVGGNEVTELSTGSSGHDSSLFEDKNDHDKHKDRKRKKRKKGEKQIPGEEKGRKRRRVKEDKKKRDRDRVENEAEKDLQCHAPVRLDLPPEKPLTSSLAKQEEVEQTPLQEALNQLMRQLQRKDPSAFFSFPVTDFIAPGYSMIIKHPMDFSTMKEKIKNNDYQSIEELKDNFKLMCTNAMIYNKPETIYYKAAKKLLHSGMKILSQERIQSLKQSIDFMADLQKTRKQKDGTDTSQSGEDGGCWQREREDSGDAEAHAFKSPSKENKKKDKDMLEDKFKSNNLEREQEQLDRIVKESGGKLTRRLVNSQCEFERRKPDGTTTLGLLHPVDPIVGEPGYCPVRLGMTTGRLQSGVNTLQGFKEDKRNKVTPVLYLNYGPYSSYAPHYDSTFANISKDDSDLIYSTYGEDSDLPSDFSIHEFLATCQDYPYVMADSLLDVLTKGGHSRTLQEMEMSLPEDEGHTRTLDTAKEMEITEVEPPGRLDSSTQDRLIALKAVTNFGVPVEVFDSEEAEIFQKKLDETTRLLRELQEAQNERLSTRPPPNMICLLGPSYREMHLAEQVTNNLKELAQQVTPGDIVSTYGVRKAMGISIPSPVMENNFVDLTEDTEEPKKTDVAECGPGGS
Experiment: Binding affinity to BRD7 (unknown origin)
propertyMeasured: IC50 (nM)
Supply the numeric figure in nM, leaving out any unit text.

Lookup: // lookup IC50 for COc1cc(-c2cn(C)c(=O)c3cnccc23)c(OC)cc1CN(C)CC(=O)NCCOCCOCCNc1cccc2c1C(=O)N(C1CCC(=O)NC1=O)C2=O (stereo unspecified)
Found: 100

----------
Molecular target: Bromodomain-containing protein 7 (Homo sapiens, UniProt Q9NPI1)
Experiment: Binding affinity to BRD7 (unknown origin)
propertyMeasured: Kd (µM)
Form entry: value (µM) — number only.

Lookup: I have this compound here, C/C=C/Cn1cc(-c2cc(OC)c(C(=O)N3CCOCC3)cc2OC)c2cc[nH]c2c1=O , and I need its recorded Kd.
Found: 0.1

----------
Organism: Homo sapiens
Assay: Selectivity index, ratio of IC50 for binding affinity to BRD4 (1) (unknown origin) N-terminal bromodomain to IC50 for binding affinity to BRD9 (unknown origin) N-terminal bromodomain
In plain terms, low fold selectivity, meaning strictly below 100, gives class 1, and everything else gives class 0.

Lookup: is_below(fold selectivity, 100) for Cc1c(NCc2ccccc2N2CCN(C)CC2)cnn(C)c1=O ?
Found: class 0

----------
Molecular target: Bromodomain-containing protein 9 (Homo sapiens)
Sequence (Q9H8M2 whole entry): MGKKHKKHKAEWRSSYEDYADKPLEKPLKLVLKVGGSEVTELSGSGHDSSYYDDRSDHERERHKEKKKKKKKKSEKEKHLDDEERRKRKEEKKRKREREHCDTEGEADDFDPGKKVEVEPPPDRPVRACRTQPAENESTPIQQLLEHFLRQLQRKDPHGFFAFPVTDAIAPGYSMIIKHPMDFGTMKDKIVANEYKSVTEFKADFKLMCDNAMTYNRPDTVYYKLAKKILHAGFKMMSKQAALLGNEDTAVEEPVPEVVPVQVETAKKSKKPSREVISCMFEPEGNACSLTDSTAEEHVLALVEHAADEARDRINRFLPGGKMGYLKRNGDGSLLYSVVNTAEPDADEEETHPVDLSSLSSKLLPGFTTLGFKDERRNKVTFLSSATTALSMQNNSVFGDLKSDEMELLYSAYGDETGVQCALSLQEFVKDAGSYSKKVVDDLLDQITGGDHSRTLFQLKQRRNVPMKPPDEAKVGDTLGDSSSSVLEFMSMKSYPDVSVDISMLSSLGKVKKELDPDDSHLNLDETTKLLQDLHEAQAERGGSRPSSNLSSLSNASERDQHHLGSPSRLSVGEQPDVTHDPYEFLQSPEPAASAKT
Experiment: Binding affinity to BRD9 (unknown origin) N-terminal bromodomain by TR-FRET assay
Measured pIC50 by item
As a rule, pIC50 stands for the negative log10 of the concentration, concentration in M.

>>> testvalue("Cc1c(NCc2ccccc2N2CCN(CCCN)CC2)cnn(C)c1=O")
7.20
>>> testvalue("Cc1ccc(CNc2cnn(C)c(=O)c2Cl)cc1")
6.10

Lookup: Item Cc1c(NCc2ccccc2N2CCNCC2)cnn(C)c1=O has what recorded pIC50?
Found: 6.70

----------
Assay: Chromatographic hydrophobicity index, logD of the compound at pH 7.4 by HPLC analysis
Type: physicochemical
Conditions: buffer
Threshold check on chromatographic logD: at or above 3 gives Satisfied, strictly below gives Not satisfied.

Example cases with answers are listed next.
>>> discretelabel("CC/C=C/c1c(NCc2ccccc2N2CCN(C)CC2)cnn(C)c1=O")
"Satisfied"
>>> discretelabel("CN1CCN(c2ccccc2CNc2cnn(C)c(=O)c2)CC1")
"Not satisfied"
>>> discretelabel("CCCCCc1c(NCc2ccccc2N2CCN(C)CC2)cnn(C)c1=O")
"Satisfied"
>>> discretelabel("Cc1ccc(CNc2cnn(C)c(=O)c2Cl)cc1")
"Satisfied"
>>> discretelabel("CCCCc1c(NCc2ccccc2N2CCN(C)CC2)cnn(C)c1=O")
"Satisfied"

Lookup: Does Cc1c(NCc2ccccc2N2CCOCC2)cnn(C)c1=O have a reported chromatographic logD of at least 3?
Found: Satisfied

Lookup: For this compound, is measured chromatographic logD 3 or higher? Cc1cccc(CNc2cnn(C)c(=O)c2Cl)c1
Found: Satisfied
